# ASSAY_TEXT: Growth inhibition in human NCI60 cells
# Format: functional
Below, each entry is listed alongside its reported log10(GI50).
MEASUREMENT_NAME: log10(GI50) (log10 of the value in nM)

COMPOUND | log10(GI50)
COC(=O)CCCCCCCCC(=O)C1=C(C)/C(=C/c2[nH]c(-c3ccc[nH]3)cc2OC)N=C1C | 4.21
CCOC(=O)C1=C(C)/C(=C/c2[nH]c(-c3ccc[nH]3)cc2OC)N=C1C [PRODIGIOSIN 4] | 1.67
COC(=O)CCC(=O)C1=C(C)/C(=C/c2[nH]c(-c3ccc[nH]3)cc2OC)N=C1C | 2.90
COc1cc(-c2ccc[nH]2)[nH]c1/C=C1\N=C(C)C(C(C)=O)=C1C [PRODIGIOSIN5] | 2.85
CCCCCC1=C/C(=C/c2[nH]c(-c3ccc[nH]3)cc2OC)N=C1C [PRODIGIOSIN CHLORIDE] | 1.15
COC(=O)CCCCC(=O)C1=C(C)/C(=C/c2[nH]c(-c3ccc[nH]3)cc2OC)N=C1C | 2.81
CCc1c(-c2ccc[nH]2)[nH]c(/C=C2\N=C(C)C(C(=O)CCCCC(=O)OC)=C2C)c1C | 3.97
